System: Fibroblast
Experiment: Multiplex assay against human fibroblast
Type: toxicity, cell-based
Details: 12 h, 10 µM, compound concentration 10 uM, replicate 2
parameter.measured: Population Hoechst High Intensity Objects (%)
Number in %, nothing else.

Use these answered entries as a reference point.
Cc1nn(C)c2nc(NNC(=O)Nc3cc(Cl)nc(Cl)c3)cc(C(C)C)c12 7
COc1cc2nc(N3CCN(C(=O)COc4c(OC)cccc4C(C)C)CC3)nc(N)c2cc1OC.Cl.Cl 10
OCCCNc1cc(-c2ccnc(Nc3cccc(Cl)c3)n2)ccn1 6

Ask: # Population Hoechst High Intensity Objects (%) lookup, item COc1cc(OC2CCN(C(C)=O)CC2)ccc1C(=O)N1CCC(N2C(=O)OCc3ccccc32)CC1
Reply: 6

Ask: # Population Hoechst High Intensity Objects (%) lookup, item Cc1sc2c(c1C)C(c1ccc(Cl)cc1)=N[C@H](CC(=O)OC(C)(C)C)c1nnc(C)n1-2
Reply: 5

----------
Tested on: HEK-293T
Assay: Multiplex assay against HEK293T
Assay type: toxicity, cell-based
Conditions: human, 12 h, 1 µM, compound concentration 1 uM, replicate 1
Non-standard residues stand in square brackets, D forms with d. Residues, ends and D or L forms follow the SMILES beside them.
Entries and their measured Population Healthy Nuclei (%) follow.
Number in %, nothing else.

molecule	assayed.system	parameter.measured	recorded.result
CN(C)C(=O)Cn1cc(-c2ccc(-c3nnc4ccccn34)cc2)cn1	HEK-293T	Population Healthy Nuclei (%)	80
O=C(O)CCC/C=C\CC1C(O)CC(O)C1/C=C/C(O)COc1cccc(Cl)c1 (stereo not drawn)	HEK-293T	Population Healthy Nuclei (%)	81
Cc1ccc(OCC(O)C(C)NC(C)C)c2c1CCC2.Cl (stereo not drawn)	HEK-293T	Population Healthy Nuclei (%)	81
CC(C)(C)c1ccc(CSc2cnn(C(C)(C)C)c(=O)c2Cl)cc1	HEK-293T	Population Healthy Nuclei (%)	78

Ask: # Population Healthy Nuclei (%) lookup, item COc1ccc2c(c1OCc1ccccc1)C[C@@H](C(=O)O)N(C(=O)C(c1ccccc1)c1ccccc1)C2
Reply: 82

Ask: # Population Healthy Nuclei (%) lookup, item N[C@](CC1c2ccccc2Oc2ccccc21)(C(=O)O)[C@H]1C[C@@H]1C(=O)O
Reply: 83

Ask: # Population Healthy Nuclei (%) lookup, item CC(C)C[C@@H]1NC(=O)[C@@H](C(C)C)NC(=O)[C@@H]2CCCN2C(=O)[C@@H](CC(=O)O)NC(=O)[C@@H](Cc2c[nH]c3ccccc23)NC1=O [BQ-123] (cyclo(L[dW][dD]P[dV]))
Reply: 80

Ask: # Population Healthy Nuclei (%) lookup, item CC(C)C[C@H](CO)Nc1nc(S[C@@H](C)c2ccccc2)nc2nc(N)sc12
Reply: 81

----------
Entries and their measured Population Apoptotic (%) follow.
System: U2OS
Assay: Multiplex assay against U2OS
Format: toxicity, cell-based
Conditions: human, 48 h, 1 µM, compound concentration 1 uM, replicate 1
Number in %, nothing else.

molecule	recorded.result
COc1ccc2c(c1OCc1ccccc1)C[C@@H](C(=O)O)N(C(=O)C(c1ccccc1)c1ccccc1)C2	91

Ask: # Population Apoptotic (%) lookup, item COCCn1c(C)c(C)s/c1=N\C(=O)C1C(C)(C)C1(C)C
Reply: 94

----------
Tested on: HEK-293T
Experiment: Multiplex assay against HEK293T
Format: toxicity, cell-based
Conditions: human, 24 h, 1 µM, compound concentration 1 uM, replicate 1
parameter.measured: Population Hoechst High Intensity Objects (%)
Number in %, nothing else.

Use these answered entries as a reference point.
molecule	recorded.result
Cc1cc(-c2ccc3c(c2)CC[C@H]3N2CC3(CCN(C(=O)Cc4cn5cc(C)sc5n4)CC3)C2)ncn1	2
Nc1nc(-c2ccco2)c2cnn(Cc3ccccc3F)c2n1	7
Cc1c(Cc2ccc3ccccc3n2)c2cc(F)ccc2n1CC(=O)O	4
COc1cc(C(=O)N2CC[C@@H](O)[C@@H](N)C2)cc2nc(-c3cc4ccccc4n3CC3CC3)n(C)c12.Cl	6
Cc1cc(O)c(-c2ccc([C@@H](C)CN(C)C)cc2)c2c1[nH]c(=O)c1sccc12	21

Ask: # Population Hoechst High Intensity Objects (%) lookup, item Cc1cc(NC(=O)NCCN2CCC(O)(Cc3ccccc3)CC2)c2ccccc2n1
Reply: 6

Ask: # Population Hoechst High Intensity Objects (%) lookup, item O=C(Nc1cc(-c2ccccc2)nn1-c1ccccc1F)c1ccc([N+](=O)[O-])cc1
Reply: 4

Ask: # Population Hoechst High Intensity Objects (%) lookup, item CCn1c(-c2nc3cc(C(=O)N4CCCC(N)C4)ccc3n2C)cc2ccccc21.Cl (stereo not drawn)
Reply: 6
